FYI, the data here is from ChEMBL document CHEMBL4813961.

assay.details: Cytotoxicity against dog MDCK cells incubated for 48 hrs by MTT assay
Format: cell-based, Canis lupus familiaris
# CC50 at 48 h listing for each entry below
Give the quantity in µM, number only.

Study these solved cases before continuing.
smiles	CC50 at 48 h, µM
CO/C1=C/C(C)=C/[C@@H](C)[C@H](O)[C@@H](C)C/C(C)=C/C=C/[C@H](OC)[C@@H]([C@@H](C)[C@@H](O)[C@H](C)[C@]2(OC)C[C@H](O)[C@@H](C)[C@H](C(C)C)O2)OC1=O	1.71
CO/C1=C/C(C)=C/[C@@H](C)[C@H](O)[C@@H](C)C/C(C)=C/C=C/[C@H](OC)[C@@H]([C@@H](C)[C@@H](O)[C@H](C)[C@]2(OC)C[C@H](OC)[C@@H](C)[C@H](C(C)C)O2)OC1=O	1.29

Bench note: what CC50 at 48 h did CCOC(=O)c1c(CSc2ccccc2)n(C)c2cc(Br)c(O)c(CN(C)C)c12 show?
46.4
